- Test system: CCRF-CEM leukemia
- test description: NCI-60 one-dose screen, 48 h (100 = growth as untreated, 0 = no growth, -100 = all killed)
- protocol conditions: 10 µM unless noted
The panel holds about 83,000 compounds, 20% with a hit somewhere; the sample as a whole holds those more often.
Kindly return Condition met if reported growth is no lower than 70%; return Condition not met if it is lower.

Answered cases to consult:
| smiles notation | class label |
| --- | --- |
| CCOc1ccc2nc(NC(=O)c3ccc(C(F)(F)F)cc3)sc2c1 | Condition met |
| CN(C)c1ccc(-c2c(NC(C)(C)C)nc3c(OCCc4ccccc4)cccn23)cc1 | Condition not met |
| Cc1c(NC(=O)CSc2nc3sc4c(c3c(=O)n2-c2ccc(Cl)cc2)CCCC4)c(=O)n(-c2ccccc2)n1C | Condition met |
| c1ccc(CNc2ncnc3ccc(-c4cnc5[nH]ncc5c4)cc23)cc1 | Condition met |
| Cc1nc(-c2cc3ccccc3oc2=O)ccc1C(=O)/C=C/c1ccc(N2CCOCC2)cc1 | Condition met |
| Cc1c(Nc2nnc(SCC(=O)Nc3sc4c(c3C#N)CCCC4)s2)c(=O)n(-c2ccccc2)n1C | Condition met |

Query block: Decide: growth of `NS(=O)(=O)c1cccc(Nc2nc(SCC(=O)c3ccc(Cl)cc3)nc3ccccc23)c1` >= 70%?
Result block: Condition met

Query block: Same thing, different molecule: `C=CCn1c(SCC(=O)c2ccc(Br)cc2)nnc1-c1c[nH]c2ccccc12`
Result block: Condition met

Query block: What about this molecule? `CN(C)CCCOc1c2ccccc2nc2c1oc1ccc(Cl)cc12`
Result block: Condition not met

Query block: Now consider `O=C(NNc1nc2cc(F)ccc2n2c(CN3CC4(COC4)C3)ccc12)c1cnccn1` .
Result block: Condition not met

Query block: `CS(=O)(=O)Nc1ccc(-c2nn(-c3ccc(S(C)(=O)=O)cc3)cc2/C=C/C(=O)c2ccc(NC(=O)CO[N+](=O)[O-])cc2)cc1` , same question.
Result block: Condition met

Query block: Repeat for the following molecule: `CC(C)(C)Nc1nc2c(OCCc3ccccc3)cccn2c1-c1ccccc1Cl`
Result block: Condition not met

Query block: Please do the same for `Cc1cc2nc3c4cc(Cl)ccc4n(CC(=S)NCCN(C)C)c3nc2cc1C` as well.
Result block: Condition not met

Query block: // next record `O=C(N/N=C/c1ccc[nH]1)c1[nH]c2ccc(Br)cc2c1-c1ccccc1`
Result block: Condition not met

====

- System: OVCAR-8 ovarian
- test description: NCI-60 one-dose screen, 48 h (100 = growth as untreated, 0 = no growth, -100 = all killed)
- protocol conditions: 10 µM unless noted
About 83,000 compounds went through this panel and 20% of them were active in at least one assay; those are over-represented in the sample as a whole.
Could you please mark class 1 for values of growth below 90% and class 0 for values at or above it?

| compound | class label |
| --- | --- |
| C#Cc1nc(C2=C(C)C(O)CC2)cs1 (stereo not given) | class 0 |

Query block: Decide: growth of `COc1cc(/C=C/C(=O)c2cc(OC)c(OC)c(OC)c2)ccc1OCc1ccccc1` strictly below 90%?
Result block: class 1

Query block: Next compound up: `COc1cccc(OC)c1-c1nnn(C)c1C(=S)N1CCN(c2ccc([N+](=O)[O-])cc2Cl)CC1`
Result block: class 0

Query block: Please do the same for `Cc1sc2c(c1C)c(=O)nc1c(-c3nc(-c4ccc(F)cc4)no3)n[nH]n12` as well.
Result block: class 0

Query block: And what about the compound `Clc1ccc2oc3c(NCCCN4CCOCC4)c4ccccc4nc3c2c1` ?
Result block: class 1
